Measured % DOSE PER GRAM, LIVER, listed per entry.
Test system: T-380 tumors
Test: Hapten biodistribution, premix protocol with bifunctional antibody ECH037.2
Format: in vivo, nude mice
Details: 24 hours; premix with 20 µg ECH037.2
// note: answer is a bare numeric in % DOSE PER GRAM

Enquiry: Which % DOSE PER GRAM, LIVER is listed for CCNC(=S)Nc1ccc(CC(CN(CC(=O)O)CC(=O)O)N(CC(=O)O)CC(=O)O)cc1 (stereo not shown) ?
Return: 3.5

Enquiry: Which % DOSE PER GRAM, LIVER is listed for O=C(O)CCNC(=S)Nc1ccc(CC(CN(CC(=O)O)CC(=O)O)N(CC(=O)O)CC(=O)O)cc1 (stereo not shown) ?
Return: 3.3

Enquiry: Which % DOSE PER GRAM, LIVER is listed for O=C(O)CN(CC(=O)O)CC(Cc1ccc(NC(=S)NCc2ccccc2)cc1)N(CC(=O)O)CC(=O)O (stereo not shown) ?
Return: 2.7

Enquiry: Which % DOSE PER GRAM, LIVER is listed for NC(=S)Nc1ccc(CC(CN(CC(=O)O)CC(=O)O)N(CC(=O)O)CC(=O)O)cc1 (stereo not shown) ?
Return: 4.0
